Cited source: ChEMBL document CHEMBL4428050

Would you kindly list pIC50 for each of these compounds?
- Test system: MOLT-4
- test details: Antiproliferative activity against human MOLT4 cells after 72 hrs by CCK8 assay
- Assay type: functional, cell-based
- condition label: molt-4
Give bare numbers, as −log10 of the molar value.

# smiles repr, pIC50
rows = [
    ("Nc1cc(C(F)(F)F)c(-c2cc(N3CCOCC3)nc(N3C[C@@H]4OCCO[C@H]4C3)n2)cn1", 6.01),
]

# ---- query compound ----
stdin: Fill blank: measured pIC50 of the compound Nc1cc(C(F)(F)F)c(-c2nc(N3CCOCC3)nc(N3C[C@H]4OCCO[C@@H]4C3)n2)cn1 is ____.
stdout: 5.64

----------
- Test system: Bel-7402
- test details: Antiproliferative activity against human Bel7402 cells after 72 hrs by CCK8 assay
- Assay type: functional, cell-based
- condition label: Bel-7402, 72 h
readout: pIC50
Numbers only, as −log10 of the molar value.

# molecule, pIC50
measured = [
    ("Nc1cc(C(F)(F)F)c(-c2cc(N3CCOCC3)nc(N3C[C@@H]4OCCO[C@H]4C3)n2)cn1 (racemic)", 5.47),
]

Go through the items and report each one's pIC50.
1. C[C@@H]1CN(c2nc(-c3cnc(N)cc3C(F)(F)F)cc(N3CCOCC3)n2)C[C@H](C)O1
2. Nc1cc(C(F)(F)F)c(-c2cc(N3CCOCC3)nc(N3C[C@H]4C[C@@H]3CO4)n2)cn1
3. CC(/C=C/C(=O)NO)=C\[C@@H](C)C(=O)c1ccc(N(C)C)cc1

stdout:
1. 5.79
2. 5.55
3. 7.00

----------
Would you kindly list IC50 for each of these compounds?
- Tested on: U-937
- test details: Antiproliferative activity against human U937 cells after 72 hrs by CCK8 assay
- Assay type: functional, cell-based
- condition label: u-937
Answers are plain numbers, in nM.

# smiles repr, units text, assay result
rows = [
    ("Nc1cc(C(F)(F)F)c(-c2nc(N3CCOCC3)nc(N3C[C@H]4OCCO[C@@H]4C3)n2)cn1", "nM", 4030),
]

# ---- query compound ----
stdin: Fill blank: measured IC50 of the compound Nc1cc(C(F)(F)F)c(-c2cc(N3CCOCC3)nc(N3C[C@@H]4OCCO[C@H]4C3)n2)cn1 is ____.
stdout: 1510

----------
- System: PANC-1
- test details: Antiproliferative activity against human PANC1 cells after 72 hrs by CCK8 assay
- Format: functional, cell-based
- condition label: Homo sapiens, PANC-1, 72 h
readout: pIC50
Answers are plain numbers, as −log10 of the molar value.

# molecule, readout, assay result
rows = [
    ("Nc1cc(C(F)(F)F)c(-c2cc(N3CCOCC3)nc(N3CCOCC3)n2)cn1 [BUPARLISIB]", "pIC50", 5.74),
]

Go through the items and report each one's pIC50.
1. C[C@@H]1CN(c2nc(-c3cnc(N)cc3C(F)(F)F)cc(N3CCOCC3)n2)C[C@H](C)O1
2. Nc1cc(C(F)(F)F)c(-c2cc(N3CCOCC3)nc(N3C[C@H]4C[C@@H]3CO4)n2)cn1
3. Nc1cc(C(F)(F)F)c(-c2cc(N3CCOCC3)nc(N3C[C@@H]4OCCO[C@@H]4C3)n2)cn1
4. CC(/C=C/C(=O)NO)=C\[C@@H](C)C(=O)c1ccc(N(C)C)cc1 [TRICHOSTATIN]
5. Nc1cc(C(F)(F)F)c(-c2nc(N3CCOCC3)nc(N3C[C@H]4OCCO[C@@H]4C3)n2)cn1 (racemic)

stdout:
5.86
5.56
5.44
7.00
5.21

Go through the items and report each one's pIC50.
1. Nc1cc(C(F)(F)F)c(-c2nc(N3CCOCC3)nc(N3C[C@@H]4OCCO[C@H]4C3)n2)cn1
2. Nc1cc(C(F)(F)F)c(-c2cc(N3CCOCC3)nc(Nc3cccc(N4CCOCC4)c3)n2)cn1

stdout:
1: 5.12; 2: 5.07

----------
- Tested on: MDA-MB-231
- test details: Antiproliferative activity against human MDA-MB-231 cells by WST8 assay
- Assay type: functional, cell-based
pIC50: −log10 of the molar value.
// label = fulfilled if pIC50 is not less than 5, otherwise not fulfilled

# smiles repr, label value
rows = [
    ("Nc1cc(C(F)(F)F)c(-c2nc(N3CCOCC3)nc(N3C[C@H]4OCCO[C@@H]4C3)n2)cn1", "not fulfilled"),
    ("CS(=O)(=O)N1CCN(c2ccc(Nc3nc(-c4cnc(N)cc4C(F)(F)F)cc(N4CCOCC4)n3)cc2)CC1", "fulfilled"),
]

Here is another compound to look at.
stdin: Assess whether reported pIC50 for CS(=O)(=O)N1CCN(C(=O)c2ccc(Nc3nc(-c4cnc(N)cc4C(F)(F)F)cc(N4CCOCC4)n3)cc2)CC1 sits at 5 or higher.
stdout: fulfilled

----------
Would you kindly list IC50 for each of these compounds?
- test details: Inhibition of PI3K p110alpha/p85 (unknown origin) using PIP2/ATP as substrate after 1 hr by kinase glo luminescent assay
- Design: species or system Homo sapiens
One number for each entry, in nM.

A selection of reference data follows.
# compound, readout, assay result
data = [
    ("Oc1cccc(-c2nc(N3CCOCC3)c3oc4ncccc4c3n2)c1 [PI-103]", "IC50", 7.4),
    ("Nc1cc(C(F)(F)F)c(-c2cc(N3CCOCC3)nc(N3CCOCC3)n2)cn1 [BUPARLISIB]", "IC50", 28),
    ("Nc1cc(C(F)(F)F)c(-c2nc(N3CCOCC3)nc(N3C[C@@H]4OCCO[C@H]4C3)n2)cn1", "IC50", 38),
    ("Nc1ncc(-c2cc(N3CCOCC3)nc(N3C[C@H]4OCCO[C@@H]4C3)n2)cn1 (racemic)", "IC50", 128),
    ("Nc1cc(C(F)(F)F)c(-c2nc(N3CCOCC3)nc(N3C[C@H]4OCCO[C@@H]4C3)n2)cn1", "IC50", 68),
    ("Nc1cc(C(F)(F)F)c(-c2cc(N3CCOCC3)nc(Nc3cccc(N4CCOCC4)c3)n2)cn1", "IC50", 118),
    ("C[C@@H]1CN(c2nc(-c3cnc(N)cc3C(F)(F)F)cc(N3CCOCC3)n2)C[C@H](C)O1", "IC50", 91),
    ("Nc1cc(C(F)(F)F)c(-c2cc(N3CCOCC3)nc(N3C[C@H]4OCCO[C@@H]4C3)n2)cn1", "IC50", 61),
    ("Nc1cc(C(F)(F)F)c(-c2nc(N3CCOCC3)nc(N3C[C@H]4OCCO[C@@H]4C3)n2)cn1 (racemic)", "IC50", 32),
    ("Nc1cc(C(F)(F)F)c(-c2cc(N3C[C@@H]4OCCO[C@@H]4C3)nc(N3CCOCC3)n2)cn1", "IC50", 896),
]

Go through the items and report each one's IC50.
1. Nc1cc(C(F)(F)F)c(-c2cc(N3CCOCC3)nc(N3C[C@@H]4OCCO[C@H]4C3)n2)cn1
2. Nc1cc(C(F)(F)F)c(-c2cc(N3CCOCC3)nc(NCCN3CCOCC3)n2)cn1
3. Nc1cc(C(F)(F)F)c(-c2cc(N3CCOCC3)nc(Nc3ccc(N4CCOCC4)cc3)n2)cn1
4. CS(=O)(=O)N1CCN(c2nc(-c3cnc(N)cc3C(F)(F)F)cc(N3CCOCC3)n2)CC1
5. Nc1cc(C(F)(F)F)c(-c2cc(N3C[C@H]4OCCO[C@@H]4C3)nc(N3CCOCC3)n2)cn1 (racemic)
6. Nc1cc(C(F)(F)F)c(-c2cc(N3CCOCC3)nc(N3C[C@H]4C[C@@H]3CO4)n2)cn1
7. C[C@@H]1CN(c2cc(-c3cnc(N)cc3C(F)(F)F)nc(N3CCOCC3)n2)C[C@H](C)O1
8. Nc1cc(C(F)(F)F)c(-c2cc(N3CCOCC3)nc(N3C[C@@H]4OCCO[C@H]4C3)n2)cn1 (racemic)

stdout:
[35, 568, 26, 23, 375, 60, 224, 31]

Go through the items and report each one's IC50.
1. C[C@@H]1CN(c2cc(-c3cnc(N)cc3C(F)(F)F)nc(N3C[C@@H]4OCCO[C@@H]4C3)n2)C[C@H](C)O1
2. C[C@@H]1CN(c2nc(-c3cnc(N)cc3C(F)(F)F)nc(N3C[C@H]4C[C@@H]3CO4)n2)C[C@H](C)O1
3. CS(=O)(=O)N1CCN(c2ccc(Nc3nc(-c4cnc(N)cc4C(F)(F)F)cc(N4CCOCC4)n3)cc2)CC1
4. Nc1cc(C(F)(F)F)c(-c2cc(N3CCOCC3)nc(N3C[C@@H]4OCCO[C@@H]4C3)n2)cn1
5. CS(=O)(=O)N1CCN(C(=O)c2ccc(Nc3nc(-c4cnc(N)cc4C(F)(F)F)cc(N4CCOCC4)n3)cc2)CC1

stdout:
1: 5750; 2: 9530; 3: 31; 4: 117; 5: 18
